System: NIH3T3
Test: Antiproliferative activity against NIH3T3 cells at 10 uM after 72 hrs by MTT assay
Assay type: functional, Mus musculus
Can you tell me Activity for the items I'm about to list?
One number for each entry, in %.

Example results:
smiles_record=COc1cc(C(=O)N/N=C/c2ccc([N+](=O)[O-])o2)cc(OC)c1O data_value=42.6
smiles_record=O=C(N/N=C/c1ccc([N+](=O)[O-])o1)c1ccc(OCCN2CCNCC2)cc1 data_value=20.5
smiles_record=O=C(N/N=C/c1ccc([N+](=O)[O-])cc1)c1ccc(O)cc1 data_value=22.95
smiles_record=CN(C)CCOc1ccc(C(=O)N/N=C/c2ccc([N+](=O)[O-])o2)cc1 data_value=73.89
smiles_record=O=C(N/N=C/c1ccc([N+](=O)[O-])o1)c1ccc(OCCCN2CCNCC2)cc1 data_value=35.44
smiles_record=O=C(N/N=C/c1ccc([N+](=O)[O-])s1)c1ccc(OCCCCCCCN2CCCCC2)cc1 data_value=57.8
smiles_record=O=C(N/N=C/c1ccc([N+](=O)[O-])o1)c1ccc(OCCCCCN2CCCCC2)cc1 data_value=78.65
smiles_record=O=C(N/N=C/c1ccc([N+](=O)[O-])o1)c1ccc(OCCCCCCCN2CCCCC2)cc1 data_value=80.4
smiles_record=COCCCOc1ccc(C(=O)N/N=C/c2ccc([N+](=O)[O-])o2)cc1 data_value=80.61
smiles_record=O=C(N/N=C/c1ccc([N+](=O)[O-])s1)c1ccc(OCCCCCCCCN2CCCCC2)cc1 data_value=62.12

Hi, could you look up Activity for each item in my list?
1. COc1cc(C(=O)N/N=C/c2ccc([N+](=O)[O-])o2)ccc1O
2. CN1CCN(CCOc2ccc(C(=O)N/N=C/c3ccc([N+](=O)[O-])o3)cc2)CC1
3. O=C(N/N=C/c1ccc([N+](=O)[O-])o1)c1ccc(OCCN2CCCCC2)cc1
4. COc1ccc(C(=O)N/N=C/c2ccc([N+](=O)[O-])o2)cc1
5. CN1CCN(CCCCCCOc2ccc(C(=O)N/N=C/c3ccc([N+](=O)[O-])o3)cc2)CC1
6. O=C(N/N=C/c1ccc([N+](=O)[O-])s1)c1ccc(OCCCCCN2CCCCC2)cc1

Outgoing:
59.11
67.72
77.2
53.46
78.83
78.83

FYI, the data here is from ChEMBL document CHEMBL5335769.
